Target: 11β-HSD1 (Homo sapiens, UniProt P28845)
Sequence (P28845 whole entry): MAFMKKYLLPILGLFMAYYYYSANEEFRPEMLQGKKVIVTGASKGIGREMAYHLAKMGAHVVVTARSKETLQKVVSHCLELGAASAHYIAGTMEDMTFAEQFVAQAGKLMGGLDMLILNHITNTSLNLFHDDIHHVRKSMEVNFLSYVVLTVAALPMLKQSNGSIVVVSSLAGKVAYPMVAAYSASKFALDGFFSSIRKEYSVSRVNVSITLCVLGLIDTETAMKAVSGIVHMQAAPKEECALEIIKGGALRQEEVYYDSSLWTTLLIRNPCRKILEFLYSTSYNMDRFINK
Experiment: biochemical
Conditions: read-out: Average % inhibition at 100 nM, Biological Test Example 1; 100 nM compound
measure name: inhibition at 0.1 µM (%)
Express your answer in %, writing the number without its unit.

So, CC(C)C1(CCCO)CCN([C@@H](C)c2ccc(-c3ccc(F)cc3F)cc2)C(=O)O1 (single isomer, unassigned) [EXAMPLE 212 Isomer 1] ? Its inhibition at 0.1 µM was 96.8

Entry O=C1OC(CCO)(c2ccccc2F)CCN1c1ccc(Cl)c(-c2ccc(F)cc2F)n1 (stereo not shown) [EXAMPLE 135] , inhibition at 0.1 µM reported as 88.9

get_value(item= O=C1O[C@@](CCO)(c2ccccc2)CCN1c1cccc(-c2ccc(F)cc2)[n+]1[O-] [EXAMPLE 126] , readout=inhibition at 0.1 µM) returns 79

Lab note: O=C1OC(CCO)(c2ccccc2)CCN1c1ccc(F)c(-c2ccc(F)cc2)c1 (single isomer, unassigned) [EXAMPLE 96 Isomer 1] gave inhibition at 0.1 µM of 88.3

Reported inhibition at 0.1 µM of O=C1OC(CC(O)CO)(c2ccccc2)CCN1c1cccc(-c2ccc(F)cc2F)c1 (stereo not shown) [EXAMPLE 77] : 88.7

Form field inhibition at 0.1 µM, entry CC(O)C[C@]1(c2ccccc2)CCN([C@@H](C)c2ccc(-c3ccc(F)cc3F)cc2)C(=O)O1 (stereo partly shown) [EXAMPLE 170] : 97

inhibition at 0.1 µM for C[C@@H](c1ccc(-c2ccc(F)cc2)cc1)N1CC[C@](CCCO)(c2cccs2)OC1=O [EXAMPLE 232] is 96.9

Memo: C[C@@H](c1ccc(-c2ccc(F)cc2)cc1)N1CC[C@@](CCO)(c2cccs2)OC1=O (single isomer, unassigned) [EXAMPLE 218 Isomer 2] , reported inhibition at 0.1 µM: 60.3

inhibition at 0.1 µM measured on CC(O)C[C@]1(c2ccccc2)CCN([C@@H](C)c2ccc(-c3ccc(F)cc3)cc2)C(=O)O1 (stereo partly shown) [EXAMPLE 224] = 97.3

Measured inhibition at 0.1 µM, C[C@@H](C1CCCCC1)N1CC[C@](CC(O)CO)(c2ccc(F)cc2)OC1=O (single isomer, unassigned) [EXAMPLE 197 Isomer 1] : 90.4

Record COc1ccc([C@H](C)N2CC[C@](CCNS(C)(=O)=O)(c3ccc(F)cc3)OC2=O)cc1 [EXAMPLE 301] . Reported inhibition at 0.1 µM: 86.7

Entry C[C@@H](c1ccc(-c2ccc(F)cc2F)cc1)N1CC[C@](CC(O)CO)(c2ccc(F)cc2)OC1=O (single isomer, unassigned) [EXAMPLE 52 Isomer 1] ; inhibition at 0.1 µM = 92.8

response.value for C=CC[C@]1(c2ccc(F)cc2)CCN([C@@H](C)c2ccc(C(N)=O)cc2)C(=O)O1 [EXAMPLE 153] (field: inhibition at 0.1 µM) = 27

For reference, reported inhibition at 0.1 µM for C=CC[C@]1(c2ccc(F)cc2)CCN([C@@H](C)c2ccc(C(=O)OC)cc2)C(=O)O1 [EXAMPLE 124] stands at 95.2

The compound C=CC[C@@]1(c2ccc(F)cc2)CCN([C@@H](C)c2ccc(Br)cc2)C(=O)O1 (single isomer, unassigned) [EXAMPLE 110 Isomer 1] showed inhibition at 0.1 µM equal to 90.5

Entry under test: CC(O)c1ccc(-c2ccc([C@H](C)N3CC[C@](CCCO)(c4ccccc4)OC3=O)cc2)s1 (stereo partly shown) [EXAMPLE 254] . Its inhibition at 0.1 µM was 96

// inhibition at 0.1 µM lookup, compound = C[C@@H](c1ccc(Cl)cc1)N1CC[C@](CCCO)(c2ccc(F)cc2)OC1=O [EXAMPLE 202] , result: 95.9

The recorded inhibition at 0.1 µM for entry C[C@@H](c1cccc(F)c1)N1CC[C@](CCC(N)=O)(c2ccc(F)cc2)OC1=O [EXAMPLE 288] equals 72.4

Entry C[C@@H](c1ccc(-c2ccc(F)cc2F)cc1)N1CC[C@](CCCOC(N)=O)(c2ccc(F)cc2)OC1=O [EXAMPLE 272] — recorded inhibition at 0.1 µM = 93.8

Value of inhibition at 0.1 µM reported for the compound O=C1OC(CCO)(c2ccccc2)CCN1c1cccc(-c2ccc(F)cc2Cl)c1 (stereo not shown) [EXAMPLE 68] is 92

The reported inhibition at 0.1 µM of the compound C[C@@H](c1ccc(-c2ccc(F)cc2F)cc1)N1CC[C@](CC(O)CO)(c2ccccc2)OC1=O (single isomer, unassigned) [EXAMPLE 173 Isomer 1] was 96.7

Note to self: inhibition at 0.1 µM recorded for CNCC(O)C[C@]1(c2ccc(F)cc2)CCN([C@@H](C)c2ccc(-c3ccc(F)cc3F)cc2)C(=O)O1 (stereo partly shown) [EXAMPLE 265] was 56.8

Recorded result, CC[C@@H](c1ccc(-c2ccc(F)cc2F)cc1)N1CC[C@](CCCO)(c2ccccc2)OC1=O [EXAMPLE 253] , inhibition at 0.1 µM: 93.3

Memo: C[C@@H](c1cccc(C(F)(F)F)c1)N1CC[C@](CCC(N)=O)(c2ccc(F)cc2)OC1=O [EXAMPLE 299] , reported inhibition at 0.1 µM: 71.7

Per the record, O=C1OC(CCO)(c2ccccc2)CCN1c1cccc(-c2ccc(F)cc2F)n1 (stereo not shown) [EXAMPLE 107] has inhibition at 0.1 µM of 90.9

The reported value for C=CCC1(c2ccc(F)cc2)CCN([C@@H](C)c2ccc(C)cc2)C(=O)O1 (single isomer, unassigned) [EXAMPLE 189 Isomer 1] in terms of inhibition at 0.1 µM is 95.2

response.value for C[C@@H](c1ccc(-c2ccc(F)cc2)cc1)N1CC[C@](CCC(C)(C)O)(c2ccccc2)OC1=O [EXAMPLE 248] (field: inhibition at 0.1 µM) = 96.7

Form field inhibition at 0.1 µM, entry C[C@@H](c1ccc(C(=O)O)cc1)N1CC[C@](CCCO)(c2ccc(F)cc2)OC1=O [EXAMPLE 142] : 34.4
